Quick reference for koff among some binders
system.name: SARS-CoV-2 spike (S) protein (SARS-CoV-2), P0DTC2
reported.conditions: remark: other sources report otherwise
Numbers only; they are read as s⁻¹.

| binder | unit.string | koff |
| --- | --- | --- |
| antibody 269 (antibody, V domains shown) VH: QLQLQESGPGLVKPSETLSLTCTVSGGSISSSSYYWGWIRQPPGKGLEWIGNIYYSGSTYYNPSLKSRVTISVDTSKNQFSLKLSSVTAADTAVYYCAGEELDIVATIYSSRYYYYGMDVWGQGTTVTVSS VL: QSALTQPASVSGSPGQSITISCTGTSSDVGGYNYVSWYQQHPGKAPKLMIYEVSNRPSGVSNRFSGSKSGNTASLTISGLQAEDEADYYCSSYTSTSTLVFGGGTKLTVL | s⁻¹ | 0.000444 |

Now for another entry.
### Prompt Fill in the blank: the reported koff of antibody 325 (antibody, V domains shown) VH: QVQLQESGPGLVKPSQTLSLTCTVSGGSISGGGYYWSWIRQHPGKGLEWIGYIYYSGSTYYNPSLQSRVTISVDTSKNQFSLKLSSVTAADTAVYYCARVGTSSVWYFDYWGQGTLVTVSS VL: QSALTQPRSVSGSPGQSVTISCTGTSSDVGGYNYVSWYQQHPGKAPKLMIYDVTKRPSGVPDRFSGSKSGNTASLTISGLQAEDEADYYCSSYAGSWVFGGGTKLTVL is ____.
### Response 0.000154
